Quick reference for efflux ratio at 120 min, 1 μM among some compounds
# target.of.assay: MDR1 (Homo sapiens (Human), UniProt P08183)
# Sequence (P08183 whole entry): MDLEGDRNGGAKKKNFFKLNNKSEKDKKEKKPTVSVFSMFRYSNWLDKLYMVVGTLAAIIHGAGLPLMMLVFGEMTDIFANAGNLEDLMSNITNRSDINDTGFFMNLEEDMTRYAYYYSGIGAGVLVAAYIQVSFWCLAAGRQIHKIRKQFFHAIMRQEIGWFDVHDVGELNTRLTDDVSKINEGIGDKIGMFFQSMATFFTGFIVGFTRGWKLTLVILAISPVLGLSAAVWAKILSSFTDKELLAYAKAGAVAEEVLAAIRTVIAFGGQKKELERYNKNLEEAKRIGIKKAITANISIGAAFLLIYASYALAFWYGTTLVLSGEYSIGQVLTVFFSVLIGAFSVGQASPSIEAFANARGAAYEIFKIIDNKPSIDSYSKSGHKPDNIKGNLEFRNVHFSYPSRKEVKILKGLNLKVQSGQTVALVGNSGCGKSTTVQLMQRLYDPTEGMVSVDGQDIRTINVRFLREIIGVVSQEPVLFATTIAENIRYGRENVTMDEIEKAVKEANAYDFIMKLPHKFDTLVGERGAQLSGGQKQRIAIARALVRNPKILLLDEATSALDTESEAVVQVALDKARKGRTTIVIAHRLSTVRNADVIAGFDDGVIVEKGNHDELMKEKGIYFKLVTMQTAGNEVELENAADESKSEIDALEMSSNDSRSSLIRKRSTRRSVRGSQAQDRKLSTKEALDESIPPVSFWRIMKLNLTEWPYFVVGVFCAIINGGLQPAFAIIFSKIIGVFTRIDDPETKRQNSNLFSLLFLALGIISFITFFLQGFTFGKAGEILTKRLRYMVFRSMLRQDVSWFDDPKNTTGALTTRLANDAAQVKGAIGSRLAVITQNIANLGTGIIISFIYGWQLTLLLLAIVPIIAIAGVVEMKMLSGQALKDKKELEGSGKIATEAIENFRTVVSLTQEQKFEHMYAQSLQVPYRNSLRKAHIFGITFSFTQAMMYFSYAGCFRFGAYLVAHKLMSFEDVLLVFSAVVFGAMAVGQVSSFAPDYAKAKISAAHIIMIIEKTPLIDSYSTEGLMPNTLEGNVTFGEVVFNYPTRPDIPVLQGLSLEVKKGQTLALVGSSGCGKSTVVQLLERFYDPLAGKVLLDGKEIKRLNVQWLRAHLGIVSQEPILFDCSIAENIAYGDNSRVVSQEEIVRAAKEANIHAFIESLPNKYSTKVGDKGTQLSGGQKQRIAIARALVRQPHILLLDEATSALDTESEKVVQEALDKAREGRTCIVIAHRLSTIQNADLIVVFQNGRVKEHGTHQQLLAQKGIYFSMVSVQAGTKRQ
# protocol.details: MDR1-MDCK assay (apparent permeability, efflux ratio)
# Assay type: in vitro ADME
# reported.conditions: human, MDCK-MDR1, 1 μM, read-out: MDR1-MDCK_Efflux Ratio
Could you keep your reply to the number by itself?

# compound, readout.value
measured = [
    ("CC(C)Oc1nc2nn(C34COC(C)(C3)C4)cc2cc1C(=O)Nc1cccn(C2CC2)c1=O [Example 9]", 3.26),
    ("CC(C)Oc1nc2nn(C34COC(C3)C4)cc2cc1C(=O)Nc1cccn([C@@H]2C[C@@H]2C)c1=O [Example 75]", 3.63),
    ("CC[C@@H](C)Oc1nc2nn(C34COC(CF)(C3)C4)cc2cc1C(=O)Nc1cccn(C2CC2)c1=O [Example 20]", 2.26),
]

Kindly consider the entry below.
Item C[C@@]12CC[C@@](n3cc4cc(C(=O)Nc5cccn(C6CC6)c5=O)c(OC5CCC5)nc4n3)(CO1)C2 [Example 6] ; assay system MDR1 (Homo sapiens (Human), UniProt P08183); efflux ratio at 120 min, 1 μM reported as 1.59

---

# target.of.assay: MDR1 (Homo sapiens (Human), UniProt P08183)
# protocol.details: MDR1-MDCK assay (apparent permeability, efflux ratio)
# Type: in vitro ADME
# reported.conditions: human, MDCK-MDR1, 1 μM, read-out: MDR1-MDCK_Efflux Ratio
# efflux ratio at 120 min, 1 μM per record follows
Give the figure by itself; no unit, no explanation.

# molecule, efflux ratio at 120 min, 1 μM
data = [
    ("CC(C)Oc1nc2nn(C34COC(C)(C3)C4)cc2cc1C(=O)Nc1cccn([C@H]2C[C@H]2F)c1=O [Example 84]", 3.06),
]

Consider CC(C)Oc1nc2nn(C34COC(CF)(C3)C4)cc2cc1C(=O)Nc1cccn(C2CC2)c1=O . Its measured efflux ratio at 120 min, 1 μM is 3.4

Reported efflux ratio at 120 min, 1 μM ( COC[C@]12CC[C@](n3cc4cc(C(=O)Nc5cccn(C6CC6)c5=O)c(OC(C)C)nc4n3)(CO1)C2 ) = 2.5

The reported efflux ratio at 120 min, 1 μM of the molecule CC(C)Oc1nc2nn(C[C@@H]3CCOC3)cc2cc1C(=O)Nc1cccn(C2CC2)c1=O was 6.36

---

# target.of.assay: UniProt:P08183
# protocol.details: MDR1-MDCK assay (apparent permeability, efflux ratio)
# Assay type: in vitro ADME
# reported.conditions: human, MDCK-MDR1, 1 μM, read-out: MDR1-MDCK_Efflux Ratio
Reported efflux ratio at 120 min, 1 μM values for the following compounds.
Respond numerically, and do not add a unit to the figure.

Below: 5 compounds and their reported efflux ratio at 120 min, 1 μM.
# compound, readout.value
rows = [
    ("CC(C)Oc1cc2nn([C@]34CC[C@](C)(C3)OC4)cc2cc1C(=O)Nc1cccn([C@H]2C[C@@H]2F)c1=O (single isomer, unassigned)", 1.6),
    ("C[C@]12CC[C@](n3cc4cc(C(=O)Nc5cccn(C6CC6)c5=O)c(OC5CCC5)nc4n3)(CO1)C2", 1.43),
    ("CC(C)Oc1nc2nn([C@@]34CC[C@@](C)(C3)OC4)cc2cc1C(=O)Nc1cccn(C2CC2)c1=O (single isomer, unassigned)", 2.04),
    ("CC(C)Oc1nc2nn([C@H]3CCCOC3)cc2cc1C(=O)Nc1cccn(C2CC2)c1=O", 2.09),
    ("CC(C)Oc1cc2nn([C@@]34CC[C@@](C)(C3)OC4)cc2cc1C(=O)Nc1cccn([C@@H]2C[C@H]2F)c1=O (single isomer, unassigned)", 1.59),
]

Record COCC12CC(n3cc4cc(C(=O)Nc5cccn([C@H]6C[C@@H]6F)c5=O)c(OC5CCC5)nc4n3)(CO1)C2 (single isomer, unassigned) , field efflux ratio at 120 min, 1 μM: 3.38
